# target-of-assay: Aβ1-40 (Homo sapiens, UniProt P05067)
# Construct: (β-AP1-40) was obtained commercially from Bachem (Torrance, Calif.); purchased Bachem (Torrance, Calif.)
# Sequence (P05067 672-711): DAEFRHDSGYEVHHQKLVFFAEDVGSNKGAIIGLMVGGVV
# method: Nucleation assay (turbidity, A405 nm);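 also: synthetic Aβ monomer polymerization followed by turbidity in 96-well plates with continuous shaking, read every 15 minutes over 5 hours, compared against wells lacking test compound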
# Assay type: biochemical
# conditions-used: Table V; 100 mole % inhibitor; read-out: % Inucl'n (percent reduction in maximum observed turbidity)
Peptide text beside a SMILES is read from it. * marks the point of attachment. Cholyl = C[C@H](CCC(=O)*)[C@H]1CC[C@H]2[C@@H]3[C@H](O)C[C@@H]4C[C@H](O)CC[C@]4(C)[C@H]3C[C@H](O)[C@]12C
Each entry below carries its reported inhibition at 100 mol %.

Illustrative cases are given below, each with its answer.
Quick check: inhibition at 100 mol % of CC(C)C[C@H](NC(=O)[C@@H](N)CCCCN)C(=O)N[C@H](C(=O)N[C@@H](Cc1ccccc1)C(=O)N[C@@H](Cc1ccccc1)C(=O)O)C(C)C [PPI-377, Aβ16-20] ?
0%

Quick check: inhibition at 100 mol % of CC(C)C[C@H](NC(=O)[C@H](CCCCN)NC(=O)[C@H](CCC(N)=O)NC(=O)CC[C@@H](C)[C@H]1CC[C@H]2[C@@H]3[C@H](O)C[C@@H]4C[C@H](O)CC[C@]4(C)[C@H]3C[C@H](O)[C@]12C)C(=O)N[C@H](C(=O)N[C@@H](Cc1ccccc1)C(=O)O)C(C)C [PPI-366] (Cholyl-QKLVF-OH) ?
-23%

Quick check: inhibition at 100 mol % of C[C@H](NC(=O)[C@H](C)NC(=O)[C@H](C)NC(=O)[C@H](C)NC(=O)[C@H](C)NC(=O)CC[C@@H](C)[C@H]1CC[C@H]2[C@@H]3[C@H](O)C[C@@H]4C[C@H](O)CC[C@]4(C)[C@H]3C[C@H](O)[C@]12C)C(=O)O [PPI-365, Cholyl-penta-alanine] ?
-7%

Proceeding to the next compound to report its inhibition at 100 mol %.
Quick check: inhibition at 100 mol % of CC(C)C[C@H](NC(=O)[C@H](CCCCN)NC(=O)CC[C@@H](C)[C@H]1CC[C@H]2[C@@H]3[C@H](O)C[C@@H]4C[C@H](O)CC[C@]4(C)[C@H]3C[C@H](O)[C@]12C)C(=O)N[C@H](C(=O)N[C@@H](Cc1ccccc1)C(=O)N[C@@H](Cc1ccccc1)C(=O)O)C(C)C [PPI-350, cholyl-Aβ16-20] ?
72%

All values here come from patent US20110009343A1.
